FYI, the data here is from PubChem BioAssay (NCI).

Test system: MCF7 breast
Assay remarks: NCI tumour cell line growth inhibition, 48 h
Quantity kind: TGI

TGI lookup needed for COC1OC(C)/C(=N/O)C2OC(C)(C)OC12 (stereo unspecified) , thanks.
> 100 µM

TGI lookup needed for `Cc1noc(-c2ccc(C(=O)O)[nH]2)c1Br` , thanks.
> 100 µM

TGI lookup needed for `COc1ccc2c(c1)[n+](=O)c(/C=C/C(=O)c1cc(OC)c(OC)c(OC)c1)c(C)n2[O-]` , thanks.
> 100 µM

TGI lookup needed for `COC(=O)CCCc1nc2ccccc2nc1N=Nc1ccccc1` , thanks.
> 100 µM

TGI lookup needed for Cc1ccc(N2Cc3c(ccc4ccccc34)OP2(=S)N2CCCC2)cc1 (stereo unspecified) , thanks.
> 100 µM

TGI lookup needed for `COc1ccc(CN2c3ccccc3Sc3ccccc32)cc1O` , thanks.
13.4 µM

TGI lookup needed for `COc1ccc(/C=C(\C#N)c2cc(OC)c(OC)c(OC)c2)cc1` , thanks.
> 50.3 µM

TGI lookup needed for `BrCc1ccc2ccc3ccc(CBr)nc3c2n1` , thanks.
4.87 µM

TGI lookup needed for `C=C1c2nc3ccccc3n2C=C(c2ccccc2)N1c1ccc(C)cc1` , thanks.
> 100 µM

TGI lookup needed for CC(=O)c1c(-c2ccco2)c(C#N)c(=S)n(C2OC(CO)C(O)C(O)C2O)c1C (stereo unspecified) , thanks.
> 100 µM

TGI lookup needed for CCOP(=O)(OCC)C(c1ccccc1)N(C(=O)NC(F)(F)F)c1ccc(C)cc1 (stereo unspecified) , thanks.
> 100 µM
